# experimental target: C-X-C chemokine receptor type 2 (Homo sapiens)
# Sequence (P25025 whole entry): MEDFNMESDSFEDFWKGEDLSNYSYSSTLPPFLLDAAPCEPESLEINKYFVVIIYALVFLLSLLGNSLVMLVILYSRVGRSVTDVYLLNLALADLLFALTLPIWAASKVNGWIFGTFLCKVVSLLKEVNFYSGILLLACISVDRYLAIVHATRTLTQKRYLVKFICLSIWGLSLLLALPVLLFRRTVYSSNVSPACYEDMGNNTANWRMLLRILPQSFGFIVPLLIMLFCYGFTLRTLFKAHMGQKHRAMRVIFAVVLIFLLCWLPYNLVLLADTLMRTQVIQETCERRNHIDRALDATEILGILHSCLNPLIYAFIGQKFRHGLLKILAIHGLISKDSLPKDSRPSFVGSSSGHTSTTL
# measurement description: Displacement of [125I]IL8 from human CXCR2 expressed in CHO cells
# Assay type: cell-based
property measured: IC50 (µM)

Use the examples below as a reference point.
CNC(=O)c1cccc(/N=c2\c(O)c(O)\c2=N/c2ccccc2)c1O: 0.022
CN(C)C(=O)c1cccc(/N=c2\c(O)c(O)\c2=N/C(C)(C)C)c1O: 0.014
CN(C)C(=O)c1cccc(/N=c2\c(O)c(O)\c2=N/C2CCCC2)c1O: 0.008
O=c1c(O)c(Nc2ccc([N+](=O)[O-])cc2O)/c1=N/c1ccccc1: 0.036

(I) O=C(NCc1ccccc1)c1cccc(Nc2c(O)c(=O)/c2=N\c2ccccc2)c1O
(II) COC(=O)c1cccc(/N=c2\c(O)c(O)\c2=N/c2ccccc2)c1O
## Task Given the two records I and II , choose the one whose IC50 value is lower. Answer = label.
## Result II
(II: 0.053 µM, I: 0.139 µM)

(1) CN(C)C(=O)c1cccc(/N=c2\c(O)c(O)\c2=N/C2CCOCC2)c1O
(2) O=c1c(O)c(Nc2ccc([N+](=O)[O-])cc2)/c1=N/c1ccccc1
## Task Of 1 and 2 , which one carries the higher reported IC50? Answer = label.
## Result 2
